Target: T1, sIL-6R (soluble IL-6 receptor; SBH Sciences) (human, UniProt P08887 20-365)
T1 construct: also called human IL-6R
T1 sequence: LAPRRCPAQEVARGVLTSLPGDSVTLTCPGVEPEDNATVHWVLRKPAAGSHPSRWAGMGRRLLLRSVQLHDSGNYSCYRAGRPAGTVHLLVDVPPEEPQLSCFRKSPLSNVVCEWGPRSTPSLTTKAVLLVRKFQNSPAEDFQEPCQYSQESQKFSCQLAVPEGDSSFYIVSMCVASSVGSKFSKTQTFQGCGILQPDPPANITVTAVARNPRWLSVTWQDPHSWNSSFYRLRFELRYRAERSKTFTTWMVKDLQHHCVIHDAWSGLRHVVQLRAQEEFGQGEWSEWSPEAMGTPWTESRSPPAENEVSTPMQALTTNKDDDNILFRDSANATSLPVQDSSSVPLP
Assay: SPR (BIAcore 3000), antibody on chip, sIL-6R analyte, pH 6.0
In this section we review reported koff values for a set of binders.
observed.property: koff (s⁻¹)

| binder | observed.property | value.observed |
| --- | --- | --- |
| Tocilizumab (antibody, human IgG1, kappa, V domains shown, also called 25; 25(control)) VH: QVQLQESGPGLVRPSQTLSLTCTVSGYSITSDHAWSWVRQPPGRGLEWIGYISYSGITTYNPSLKSRVTMLRDTSKNQFSLRLSSVTAADTAVYYCARSLARTTAMDYWGQGSLVTVSS VL: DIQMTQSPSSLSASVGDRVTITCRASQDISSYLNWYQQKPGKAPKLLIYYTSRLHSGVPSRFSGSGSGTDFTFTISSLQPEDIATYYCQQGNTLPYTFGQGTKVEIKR | koff | 0.000564 |
| 205# (antibody, human IgG1, kappa, V domains shown) VH: QVQLQESGPGLVRPSQTLSLTCTVSGYSITSDHAWSWVRQPPGRGLEWIGFISYSGMTTYNPSLKSRVTMLRDTSKNQFSLRLSSVTAADTAVYYCARCLARTTAMDYWGQGSLVTVSS VL: DIQMTQSPSSLSASVGDRVTITCRASQDISSYLNWYQQKPGKAPKLLIYYTSRLHSGVPSRFSGSGSGTDFTFTISSLQPEDIATYYCGQGNRLPYTFGQGTKVEIKR | koff | 2.15e-05 |
| 202# (antibody, human IgG1, kappa, V domains shown) VH: QVQLQESGPGLVRPSQTLSLTCTVSGYSITSDHAWSWVRQPPGRGLEWIGYISYSGITTYNPSLKSRVTMLRDTSKNQFSLRLSSVTAADTAVYYCARVLARITAMDYWGQGSLVTVSS VL: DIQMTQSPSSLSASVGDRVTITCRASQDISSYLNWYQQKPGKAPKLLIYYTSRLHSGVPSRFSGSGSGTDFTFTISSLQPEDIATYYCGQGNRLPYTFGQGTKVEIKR | koff | 6.1e-06 |
| 206# (antibody, human IgG1, kappa, V domains shown, also called Sample # 206) VH: QVQLQESGPGLVRPSQTLSLTCTVSGYSITSDHAWSWVRQPPGRGLEWIGFISYSGMTTYNPSLKSRVTMLRDTSKNQFSLRLSSVTAADTAVYYCARSLARITAMDYWGQGSLVTVSS VL: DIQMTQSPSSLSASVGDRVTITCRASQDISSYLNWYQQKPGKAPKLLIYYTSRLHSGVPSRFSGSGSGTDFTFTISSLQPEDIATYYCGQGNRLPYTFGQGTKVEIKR | koff | 8.78e-06 |
